From: patent US9096591B2

- target system: human recombinant adrenergic α1D receptor (Homo sapiens, UniProt P25100)
- Construct: expressed in transfected cells; host or cells: HEK-293 cells
- Sequence (P25100 whole entry): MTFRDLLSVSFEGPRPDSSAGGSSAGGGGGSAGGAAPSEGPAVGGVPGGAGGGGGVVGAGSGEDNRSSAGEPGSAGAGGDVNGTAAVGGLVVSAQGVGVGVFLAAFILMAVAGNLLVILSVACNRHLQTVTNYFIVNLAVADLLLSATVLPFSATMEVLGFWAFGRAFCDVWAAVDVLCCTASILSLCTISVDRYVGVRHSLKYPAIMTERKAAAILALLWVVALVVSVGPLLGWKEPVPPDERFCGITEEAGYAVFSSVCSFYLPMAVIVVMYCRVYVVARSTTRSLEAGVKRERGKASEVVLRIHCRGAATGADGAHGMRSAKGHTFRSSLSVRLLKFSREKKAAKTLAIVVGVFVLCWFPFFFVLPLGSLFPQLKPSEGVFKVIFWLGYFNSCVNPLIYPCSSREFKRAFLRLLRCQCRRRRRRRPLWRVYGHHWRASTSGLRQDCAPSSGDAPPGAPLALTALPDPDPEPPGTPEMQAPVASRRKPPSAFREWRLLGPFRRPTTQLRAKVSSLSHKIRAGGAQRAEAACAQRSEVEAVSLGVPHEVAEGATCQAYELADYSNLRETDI
- test method notes: Adrenergic α1D radioligand binding ([3H]Prozosin)
- Set-up: concentration or dose not given beside the values
- test context: percent inhibition of specific binding
measured metric: Inhibition of ligand binding, Adren. alpha1D (%)
Entry rule: numbers only, all in %.

{"molecule": "CCN1CCc2c(c3ccccc3n2CCc2ccc(C)cc2)C1 [Compound 3]", "unit name": "%", "numeric value": 48}
{"molecule": "CCN1CCc2c(c3cc(C)ccc3n2CCc2ccc(C)nc2)C1 [Compound 31]", "unit name": "%", "numeric value": 70}
{"molecule": "CN1CCc2c(c3cc(Cl)ccc3n2CCc2cncnc2)C1 [Compound 424]", "unit name": "%", "numeric value": 57}

Enquiry: What Inhibition of ligand binding, Adren. alpha1D value was documented for this molecule, CN1CCc2c(c3cc(Cl)ccc3n2CCC(=O)N2CCCC2)C1 [Compound 240] ?
Return: 42

Enquiry: Please do the same for Cc1ccc2c(c1)c1c(n2CCc2ccc(C)nc2)CCN(C2CC2)C1 [Compound 51] as well.
Return: 22

Enquiry: Please do the same for Cc1ccc2c(c1)c1c(n2CCc2cccnc2)CCN(C)C1 [Compound 60] as well.
Return: 82

Enquiry: Please do the same for Cc1ccc2c(c1)c1c(n2CCCc2ccc(C(F)(F)F)nc2)CCN(C)C1 [Compound 331] as well.
Return: 63

Enquiry: Please do the same for Cc1ccc2c(c1)c1c(n2CCc2cnc(C)cn2)CCN(C)C1 [Compound 322] as well.
Return: 66

Enquiry: Please do the same for Cc1ccc2c(c1)c1c(n2CCc2cncc(Cl)c2)CCN(C)C1 [Compound 443] as well.
Return: 91

Enquiry: Please do the same for Cc1cnc(CCn2c3c(c4cc(C(C)C)ccc42)CN(C)CC3)cn1 [Compound 369] as well.
Return: 51

Enquiry: Please do the same for CN1CCc2c(c3cc(Cl)c(F)cc3n2CCc2ccc(C(F)(F)F)nc2)C1 [Compound 343] as well.
Return: 61

Enquiry: Please do the same for CC(=O)N1CCN(C(=O)Cn2c3c(c4cc(Cl)ccc42)CN(C)CC3)CC1 [Compound 297] as well.
Return: 15

Enquiry: Please do the same for Cc1ccc2c(c1)c1c(n2CCN2CCCCC2)CCN(C)C1 [Compound 224] as well.
Return: 22

Enquiry: Please do the same for CC1CCN(C(=O)CCn2c3c(c4cc(Cl)ccc42)CN(C)CC3)CC1 [Compound 325] as well.
Return: 36

Enquiry: Please do the same for CN1CCc2c(c3ccccc3n2CCc2ccccc2)C1 [Compound 2] as well.
Return: 72

Enquiry: Please do the same for Cc1ncc(CCn2c3c(c4cc(Cl)ccc42)CN(C)CC3)cn1 [Compound 361] as well.
Return: 87

Enquiry: Please do the same for CCN1CCc2c(c3ccccc3n2CCc2ccccn2)C1 [Compound 6] as well.
Return: 6

Enquiry: Please do the same for Cc1ccc2c(c1)c1c(n2CCc2cncnc2)CCN(C)C1 [Compound 387] as well.
Return: 47

Enquiry: Please do the same for COc1ccc(CCn2c3c(c4cc(Cl)ccc42)CN(C)CC3)cc1 [Compound 336] as well.
Return: 98

Enquiry: Please do the same for CCN1CCc2c(c3cc(C)ccc3n2CCc2ccncc2)C1 [Compound 27] as well.
Return: 63

Enquiry: Please do the same for Cc1ccc(CCn2c3c(c4cc(Cl)ccc42)CN(C)CC3)cc1 [Compound 43] as well.
Return: 98

Enquiry: Please do the same for Cc1ccc2c(c1)c1c(n2CCC(=O)N2CCC(N)CC2)CCN(C)C1 [Compound 231] as well.
Return: 21

Enquiry: Please do the same for CN1CCc2c(c3cc(Cl)ccc3n2CC(=O)N2CC[S+]([O-])CC2)C1 [Compound 296] as well.
Return: 3

Enquiry: Please do the same for CC(C)c1ccc2c(c1)c1c(n2CCc2ccc(C(F)(F)F)nc2)CCN(C)C1 [Compound 342] as well.
Return: 91

Enquiry: Please do the same for CN1CCc2c(c3ccccc3n2CCc2ccncc2)C1 [Compound 10] as well.
Return: 19

Enquiry: Please do the same for CN1CCc2c(c3cc(Cl)ccc3n2CCCc2ccc(C(F)(F)F)nc2)C1 [Compound 324] as well.
Return: 53

Enquiry: Please do the same for Cc1ccc2c(c1)c1c(n2CC(=O)N2CCCC2)CCN(C)C1 [Compound 257] as well.
Return: 3

Enquiry: Please do the same for Cc1ccc2c(c1)c1c(n2CCc2ccc(Cl)cc2)CCN(C)C1 [Compound 32] as well.
Return: 94

Enquiry: Please do the same for CN1CCc2c(c3cc(Cl)ccc3n2CC(=O)N2CCOCC2)C1 [Compound 238] as well.
Return: 2
